These measurements were taken from ChEMBL document CHEMBL5375979.

# measurement-target: Dual specificity tyrosine-phosphorylation-regulated kinase 3 (Homo sapiens, UniProt O43781)
# Sequence (O43781 whole entry): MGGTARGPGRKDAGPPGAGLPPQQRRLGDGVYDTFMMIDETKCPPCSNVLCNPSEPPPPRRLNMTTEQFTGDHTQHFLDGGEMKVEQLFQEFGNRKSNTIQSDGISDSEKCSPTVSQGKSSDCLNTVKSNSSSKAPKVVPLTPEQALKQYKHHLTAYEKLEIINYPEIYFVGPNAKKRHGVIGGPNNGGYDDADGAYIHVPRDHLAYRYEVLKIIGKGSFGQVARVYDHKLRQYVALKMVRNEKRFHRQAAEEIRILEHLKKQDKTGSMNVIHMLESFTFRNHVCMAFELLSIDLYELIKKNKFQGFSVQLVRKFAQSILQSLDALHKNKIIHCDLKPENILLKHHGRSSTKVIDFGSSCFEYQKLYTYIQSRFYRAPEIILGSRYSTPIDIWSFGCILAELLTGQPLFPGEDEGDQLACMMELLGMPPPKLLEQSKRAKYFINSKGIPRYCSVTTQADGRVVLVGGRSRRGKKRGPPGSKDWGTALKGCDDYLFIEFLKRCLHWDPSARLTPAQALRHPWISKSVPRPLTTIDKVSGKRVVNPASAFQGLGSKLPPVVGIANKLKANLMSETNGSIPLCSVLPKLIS
observation-type: IC50

Ask: Read off the recorded IC50 for `COC[C@@H](CC(C)C)NC1=N/C(=C\c2ccc3scnc3c2)C(=O)N1`
Reply: > 1000 nM

###

Here we list compounds with their recorded IC50 when tested on Dual specificity protein kinase CLK3 (Homo sapiens).
Express your answer in µM, writing the number without its unit.

Check out these entries, answers already filled in.
>  <chemical-smiles>
COC[C@@H](CC(C)C)NC1=N/C(=C\c2ccc3ncsc3c2)C(=O)N1C1CC1

>  <observation-type>
IC50

>  <units-text>
µM

>  <readout-number>
1.26

$$$$
>  <chemical-smiles>
CCN1C(=O)/C(=C/c2ccc3ncsc3c2)N=C1N[C@@H](COC)CC(C)C

>  <observation-type>
IC50

>  <units-text>
µM

>  <readout-number>
1.36

$$$$
>  <chemical-smiles>
COC[C@@H](CC(C)C)NC1=N/C(=C\c2ccc3ncsc3c2)C(=O)N1C1CCCC1

>  <observation-type>
IC50

>  <units-text>
µM

>  <readout-number>
5.32

$$$$
>  <chemical-smiles>
CC(C)C[C@@H](CO)NC1=N/C(=C\c2ccc3ncsc3c2)C(=O)N1

>  <observation-type>
IC50

>  <units-text>
µM

>  <readout-number>
0.474

$$$$
>  <chemical-smiles>
CC(C)C[C@H](CO)NC1=N/C(=C\c2ccc3ncsc3c2)C(=O)N1

>  <observation-type>
IC50

>  <units-text>
µM

>  <readout-number>
0.461

$$$$
>  <chemical-smiles>
O=C1NC(Nc2ccccc2)=N/C1=C\c1ccc2c(c1)OCO2

>  <observation-type>
IC50

>  <units-text>
µM

>  <readout-number>
5.84

$$$$
>  <chemical-smiles>
COC[C@@H](CC(C)C)NC1=N/C(=C\c2ccc3ncsc3n2)C(=O)N1

>  <observation-type>
IC50

>  <units-text>
µM

>  <readout-number>
0.219

$$$$

Attention now turns to another entry.
Ask: // fetch IC50; item: `COC[C@@H](CC(C)C)NC1=N/C(=C\c2ccc3ncsc3c2)C(=O)N1C1CCC1` ; system: Dual specificity protein kinase CLK3 (Homo sapiens)
Reply: 4.69

###

# measurement-target: Myotonin-protein kinase (Homo sapiens)
# Sequence (Q09013 whole entry): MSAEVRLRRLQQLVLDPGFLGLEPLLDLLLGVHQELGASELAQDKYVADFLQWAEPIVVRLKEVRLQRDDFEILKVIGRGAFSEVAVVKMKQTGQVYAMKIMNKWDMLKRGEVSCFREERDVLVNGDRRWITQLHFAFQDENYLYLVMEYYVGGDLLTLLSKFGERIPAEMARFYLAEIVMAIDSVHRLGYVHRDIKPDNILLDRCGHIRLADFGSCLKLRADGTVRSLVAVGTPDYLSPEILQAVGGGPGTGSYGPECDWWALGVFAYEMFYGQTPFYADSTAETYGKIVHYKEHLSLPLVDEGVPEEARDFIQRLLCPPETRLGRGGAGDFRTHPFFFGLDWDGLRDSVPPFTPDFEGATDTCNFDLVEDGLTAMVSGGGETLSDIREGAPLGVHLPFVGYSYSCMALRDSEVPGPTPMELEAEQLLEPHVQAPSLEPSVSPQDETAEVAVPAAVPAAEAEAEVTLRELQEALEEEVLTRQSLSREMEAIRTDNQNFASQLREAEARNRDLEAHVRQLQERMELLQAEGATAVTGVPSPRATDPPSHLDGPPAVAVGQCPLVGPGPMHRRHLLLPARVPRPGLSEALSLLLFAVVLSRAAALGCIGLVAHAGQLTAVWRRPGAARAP
observation-type: IC50

Ask: Give measured IC50 for `COC[C@@H](CC(C)C)NC1=N/C(=C\c2ccc3scnc3c2)C(=O)N1` (Myotonin-protein kinase (Homo sapiens)).
Reply: > 1000 nM

###

# measurement-target: Cyclin-dependent kinase-like 1 (Homo sapiens)
# Sequence (Q00532 whole entry): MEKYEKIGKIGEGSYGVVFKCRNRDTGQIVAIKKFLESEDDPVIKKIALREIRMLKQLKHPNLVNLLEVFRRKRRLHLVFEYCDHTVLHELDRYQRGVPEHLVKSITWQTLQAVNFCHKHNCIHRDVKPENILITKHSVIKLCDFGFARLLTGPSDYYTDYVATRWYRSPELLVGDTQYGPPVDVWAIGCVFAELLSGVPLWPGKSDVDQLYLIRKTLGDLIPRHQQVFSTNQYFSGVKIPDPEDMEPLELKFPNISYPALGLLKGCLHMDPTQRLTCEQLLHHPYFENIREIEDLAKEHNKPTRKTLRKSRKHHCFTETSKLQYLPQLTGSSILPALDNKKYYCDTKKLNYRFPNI
pIC50: −log10 of the molar value.
observation-type: pIC50

Ask: With Cyclin-dependent kinase-like 1 (Homo sapiens) as the test system, provide measured pIC50 for this molecule: `COC[C@@H](CC(C)C)NC1=N/C(=C\c2ccc3scnc3c2)C(=O)N1`
Reply: < 6.00

###

# measurement-target: Dual specificity tyrosine-phosphorylation-regulated kinase 2 (Homo sapiens, UniProt Q92630)
# Sequence (Q92630 whole entry): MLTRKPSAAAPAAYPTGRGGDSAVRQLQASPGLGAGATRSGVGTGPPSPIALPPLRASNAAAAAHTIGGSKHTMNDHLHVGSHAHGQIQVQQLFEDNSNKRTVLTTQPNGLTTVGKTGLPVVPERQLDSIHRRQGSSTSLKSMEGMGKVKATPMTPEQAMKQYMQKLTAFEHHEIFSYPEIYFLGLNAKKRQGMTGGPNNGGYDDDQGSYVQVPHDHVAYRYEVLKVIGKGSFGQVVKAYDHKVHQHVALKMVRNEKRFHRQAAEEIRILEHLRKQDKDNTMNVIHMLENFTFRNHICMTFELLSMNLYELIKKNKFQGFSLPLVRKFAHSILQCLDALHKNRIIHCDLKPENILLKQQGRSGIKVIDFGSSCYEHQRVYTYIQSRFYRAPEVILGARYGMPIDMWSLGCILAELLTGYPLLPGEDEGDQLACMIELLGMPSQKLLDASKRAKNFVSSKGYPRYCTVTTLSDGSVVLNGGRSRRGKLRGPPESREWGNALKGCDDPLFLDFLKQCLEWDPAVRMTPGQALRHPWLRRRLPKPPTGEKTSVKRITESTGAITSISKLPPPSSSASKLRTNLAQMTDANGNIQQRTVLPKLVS
observation-type: IC50 (µM)
Give a bare numeral; the unit µM is implied.

Solved cases (6 shown):
>  <chemical-smiles>
CC(C)C[C@H](CO)NC1=N/C(=C\c2ccc3ncsc3c2)C(=O)N1

>  <IC50 [µM]>
0.635

$$$$
>  <chemical-smiles>
CC(C)C[C@@H](CO)NC1=N/C(=C\c2ccc3ncsc3c2)C(=O)N1

>  <IC50 [µM]>
2.84

$$$$
>  <chemical-smiles>
CCN1C(=O)/C(=C/c2ccc3ncsc3c2)N=C1N[C@@H](COC)CC(C)C

>  <IC50 [µM]>
0.165

$$$$
>  <chemical-smiles>
COC[C@@H](CC(C)C)NC1=N/C(=C\c2ccc3ncsc3c2)C(=O)N1C1CCCC1

>  <IC50 [µM]>
0.774

$$$$
>  <chemical-smiles>
COC[C@@H](CC(C)C)NC1=N/C(=C\c2ccc3ncsc3n2)C(=O)N1

>  <IC50 [µM]>
4.36

$$$$
>  <chemical-smiles>
COC[C@@H](CC(C)C)NC1=N/C(=C\c2ccc3ncsc3c2)C(=O)N1C1CCCCC1

>  <IC50 [µM]>
3.97

$$$$

Ask: Retrieve IC50 measured for `COC[C@@H](CC(C)C)NC1=N/C(=C\c2ccc3ncsc3c2)C(=O)N1C1CCC1` and print it.
Reply: 0.581

###

# measurement-target: Dual specificity tyrosine-phosphorylation-regulated kinase 3 (Homo sapiens, UniProt O43781)
observation-type: IC50 (µM)
Report the figure in µM without appending any unit label.

Answered cases to consult:
>  <chemical-smiles>
COC[C@@H](CC(C)C)NC1=N/C(=C\c2ccc3ncsc3c2)C(=O)N1C1CCC1

>  <IC50 (µM)>
5.32

$$$$
>  <chemical-smiles>
CC(C)C[C@H](CO)NC1=N/C(=C\c2ccc3ncsc3c2)C(=O)N1

>  <IC50 (µM)>
0.31

$$$$

Ask: Please indicate IC50 recorded for `COC[C@@H](CC(C)C)NC1=N/C(=C\c2ccc3ncsc3n2)C(=O)N1`
Reply: 1.38

Ask: Using known records, supply IC50 for `COC[C@@H](CC(C)C)NC1=N/C(=C\c2ccc3ncsc3c2)C(=O)N1C1CC1`
Reply: 0.842

Ask: Please report the measured IC50 for `CC(C)C[C@@H](CO)NC1=N/C(=C\c2ccc3ncsc3c2)C(=O)N1`
Reply: 0.493

###

# measurement-target: cGMP-dependent protein kinase 2 (Homo sapiens, UniProt Q13237)
# Sequence (Q13237 whole entry): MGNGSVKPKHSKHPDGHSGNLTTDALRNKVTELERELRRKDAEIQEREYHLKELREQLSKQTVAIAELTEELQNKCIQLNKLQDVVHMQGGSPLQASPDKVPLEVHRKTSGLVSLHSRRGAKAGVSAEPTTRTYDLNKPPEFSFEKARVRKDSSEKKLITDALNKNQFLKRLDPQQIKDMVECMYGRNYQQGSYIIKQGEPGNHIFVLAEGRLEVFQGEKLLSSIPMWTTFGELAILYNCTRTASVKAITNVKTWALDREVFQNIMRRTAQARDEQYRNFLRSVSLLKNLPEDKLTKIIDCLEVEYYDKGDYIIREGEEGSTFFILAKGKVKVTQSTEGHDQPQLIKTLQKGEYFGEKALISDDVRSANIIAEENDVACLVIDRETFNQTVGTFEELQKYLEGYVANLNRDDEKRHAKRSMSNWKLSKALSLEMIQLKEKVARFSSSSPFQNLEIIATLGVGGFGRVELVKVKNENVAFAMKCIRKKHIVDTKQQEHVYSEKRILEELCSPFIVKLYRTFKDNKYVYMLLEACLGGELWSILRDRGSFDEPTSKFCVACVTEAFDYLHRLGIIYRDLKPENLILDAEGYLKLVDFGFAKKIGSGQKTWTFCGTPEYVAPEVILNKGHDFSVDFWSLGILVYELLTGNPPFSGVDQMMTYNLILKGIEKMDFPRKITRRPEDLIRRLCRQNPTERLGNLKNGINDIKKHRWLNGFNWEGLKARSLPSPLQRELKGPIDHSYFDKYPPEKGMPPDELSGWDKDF
pIC50: −log10 of the molar value.
observation-type: pIC50

Ask: Read the entry `COC[C@@H](CC(C)C)NC1=N/C(=C\c2ccc3scnc3c2)C(=O)N1` and write its reported pIC50.
Reply: < 5.00

###

# measurement-target: Dual specificity protein kinase CLK2 (Homo sapiens)
# Sequence (P49760 whole entry): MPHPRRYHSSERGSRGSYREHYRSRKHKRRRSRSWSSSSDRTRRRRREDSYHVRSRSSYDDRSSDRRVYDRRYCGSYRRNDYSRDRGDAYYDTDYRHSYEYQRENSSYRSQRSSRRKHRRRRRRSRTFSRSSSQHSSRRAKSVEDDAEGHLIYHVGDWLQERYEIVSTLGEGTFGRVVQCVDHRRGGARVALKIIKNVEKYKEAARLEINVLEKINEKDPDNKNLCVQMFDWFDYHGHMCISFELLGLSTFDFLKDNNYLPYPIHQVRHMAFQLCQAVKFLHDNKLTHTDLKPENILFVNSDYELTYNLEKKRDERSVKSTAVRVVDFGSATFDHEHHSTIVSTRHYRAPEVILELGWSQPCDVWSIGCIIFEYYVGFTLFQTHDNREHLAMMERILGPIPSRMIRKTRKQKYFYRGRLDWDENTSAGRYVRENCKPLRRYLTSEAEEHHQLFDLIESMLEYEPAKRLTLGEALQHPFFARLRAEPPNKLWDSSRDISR
pIC50: −log10 of the molar value.
observation-type: pIC50

Ask: Recall the reported pIC50 of `COC[C@@H](CC(C)C)NC1=N/C(=C\c2ccc3scnc3c2)C(=O)N1` when tested on Dual specificity protein kinase CLK2 (Homo sapiens).
Reply: < 6.00

###

# measurement-target: UniProt P49759
# Sequence (P49759 whole entry): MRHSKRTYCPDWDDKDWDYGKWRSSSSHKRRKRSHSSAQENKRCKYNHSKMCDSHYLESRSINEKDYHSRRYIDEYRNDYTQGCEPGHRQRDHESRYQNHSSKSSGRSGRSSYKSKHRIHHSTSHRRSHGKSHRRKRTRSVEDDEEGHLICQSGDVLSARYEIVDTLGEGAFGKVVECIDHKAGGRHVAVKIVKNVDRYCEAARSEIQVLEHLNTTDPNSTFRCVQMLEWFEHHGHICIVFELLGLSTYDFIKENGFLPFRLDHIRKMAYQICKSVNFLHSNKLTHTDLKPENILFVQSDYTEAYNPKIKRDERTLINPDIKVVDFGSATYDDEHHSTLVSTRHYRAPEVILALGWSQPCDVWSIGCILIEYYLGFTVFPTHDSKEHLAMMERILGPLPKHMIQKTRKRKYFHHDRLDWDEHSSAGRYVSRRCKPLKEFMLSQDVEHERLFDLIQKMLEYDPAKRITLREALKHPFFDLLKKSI
Each record here notes measured pIC50.
Scale explanation: pIC50 corresponds to minus log10 of a concentration expressed in moles per litre.

Would you please look over these solved cases?
>  <chemical-smiles>
COC[C@@H](CC(C)C)NC1=N/C(=C\c2ccc3c(cnn3C)c2)C(=O)N1C

>  <pIC50>
6.39

$$$$
>  <chemical-smiles>
COC[C@@H](CC(C)C)NC1=N/C(=C\c2ccc3ncsc3c2)C(=O)N1C1CCCC1

>  <pIC50>
5.61

$$$$
>  <chemical-smiles>
COC[C@@H](CC(C)C)NC1=N/C(=C\c2ccc3c(c2)OCO3)C(=O)N1

>  <pIC50>
9.00

$$$$

Ask: Fetch value of pIC50 on UniProt P49759 for `COC[C@@H](CC(C)C)NC1=N/C(=C\c2ccc3nnsc3c2)C(=O)N1C` .
Reply: 6.13

Ask: Retrieve pIC50 on UniProt P49759; query `CC(C)C[C@H](CO)NC1=N/C(=C\c2ccc3ncsc3c2)C(=O)N1`
Reply: 7.86

Ask: Supply pIC50 measured with UniProt P49759 for `CC(C)C[C@@H](CO)NC1=N/C(=C\c2ccc3ncsc3c2)C(=O)N1` .
Reply: 7.41

###

# measurement-target: Casein kinase I
# Format: protein assay, Homo sapiens
Reported IC50 is given for each of the following compounds.

>  <chemical-smiles>
COC[C@@H](CC(C)C)NC1=N/C(=C\c2ccc3ncsc3n2)C(=O)N1

>  <IC50>
> 10 µM

$$$$
>  <chemical-smiles>
COC[C@@H](CC(C)C)NC1=N/C(=C\c2cc3scnc3cn2)C(=O)N1

>  <IC50>
> 10 µM

$$$$

Okay, next one:
Ask: Provide the reported IC50 (system: Casein kinase I) for `COC[C@@H](CC(C)C)NC1=N/C(=C\c2cnc3ncsc3c2)C(=O)N1`
Reply: > 10 µM

###

# measurement-target: Dual specificity protein kinase CLK3 (Homo sapiens, UniProt P49761)
# Sequence (P49761 whole entry): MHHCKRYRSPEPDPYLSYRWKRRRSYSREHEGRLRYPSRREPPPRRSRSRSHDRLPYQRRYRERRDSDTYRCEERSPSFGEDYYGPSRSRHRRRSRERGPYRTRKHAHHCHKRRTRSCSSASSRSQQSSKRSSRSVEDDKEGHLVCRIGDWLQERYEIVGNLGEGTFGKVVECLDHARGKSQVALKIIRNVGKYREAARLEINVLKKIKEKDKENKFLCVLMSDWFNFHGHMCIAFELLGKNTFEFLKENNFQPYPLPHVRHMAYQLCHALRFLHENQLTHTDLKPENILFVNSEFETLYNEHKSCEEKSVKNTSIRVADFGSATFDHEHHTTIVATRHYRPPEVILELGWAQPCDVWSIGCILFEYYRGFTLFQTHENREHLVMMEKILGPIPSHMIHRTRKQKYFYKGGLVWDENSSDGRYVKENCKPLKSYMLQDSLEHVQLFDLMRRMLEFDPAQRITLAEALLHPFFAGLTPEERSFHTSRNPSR
observation-type: IC50

Ask: Enter measured IC50, system Dual specificity protein kinase CLK3 (Homo sapiens, UniProt P49761), for the molecule shown: `COC[C@@H](CC(C)C)NC1=N/C(=C\c2ccc3scnc3c2)C(=O)N1`
Reply: > 1000 nM

###

# measurement-target: Cyclin-dependent kinase-like 5 (Homo sapiens, UniProt O76039)
# Sequence (O76039 whole entry): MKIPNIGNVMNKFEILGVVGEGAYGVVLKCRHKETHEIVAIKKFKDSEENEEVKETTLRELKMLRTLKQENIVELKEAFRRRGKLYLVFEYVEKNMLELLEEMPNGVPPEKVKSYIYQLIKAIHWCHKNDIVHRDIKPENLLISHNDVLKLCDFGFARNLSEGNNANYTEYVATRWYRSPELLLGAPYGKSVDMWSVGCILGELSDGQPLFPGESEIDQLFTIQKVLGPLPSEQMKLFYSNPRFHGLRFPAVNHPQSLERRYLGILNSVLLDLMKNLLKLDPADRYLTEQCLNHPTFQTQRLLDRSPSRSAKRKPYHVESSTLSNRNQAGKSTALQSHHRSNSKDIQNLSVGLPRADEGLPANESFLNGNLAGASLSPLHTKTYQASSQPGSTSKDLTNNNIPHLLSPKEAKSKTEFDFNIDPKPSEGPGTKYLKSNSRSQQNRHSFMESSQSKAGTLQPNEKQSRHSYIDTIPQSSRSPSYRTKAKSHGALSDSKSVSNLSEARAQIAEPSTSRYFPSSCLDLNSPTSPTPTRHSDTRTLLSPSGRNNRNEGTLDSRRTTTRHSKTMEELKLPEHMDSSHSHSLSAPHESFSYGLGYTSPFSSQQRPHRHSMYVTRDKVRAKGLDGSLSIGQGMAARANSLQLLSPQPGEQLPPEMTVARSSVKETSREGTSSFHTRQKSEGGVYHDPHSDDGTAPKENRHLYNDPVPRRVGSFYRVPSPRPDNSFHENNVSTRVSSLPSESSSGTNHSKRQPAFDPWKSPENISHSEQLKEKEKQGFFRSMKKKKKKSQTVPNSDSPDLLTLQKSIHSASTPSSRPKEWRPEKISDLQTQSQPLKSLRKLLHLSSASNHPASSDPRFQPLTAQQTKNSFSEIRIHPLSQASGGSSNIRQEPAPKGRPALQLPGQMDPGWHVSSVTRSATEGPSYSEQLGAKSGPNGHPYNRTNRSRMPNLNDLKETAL
pIC50: −log10 of the molar value.
observation-type: pIC50

Ask: Check Cyclin-dependent kinase-like 5 (Homo sapiens, UniProt O76039) data and give pIC50 for `COC[C@@H](CC(C)C)NC1=N/C(=C\c2ccc3scnc3c2)C(=O)N1` .
Reply: < 5.00
